IC50 MD-MBA-231 for assorted compounds
System: MD-MBA-231
Assay type: cell-based, human
Conditions: 72 h
Square brackets hold non-standard residues; d marks the D form. Peptide text beside a SMILES is read from it. NMeL = CN[C@@H](CC(C)C)C(=O)O
QUANTITY_NAME: IC50 MD-MBA-231 (µg/mL)

INSERT INTO results (compound, test_value) VALUES
  ('CC(C)C[C@@H]1NC(=O)[C@H](CC(C)C)N(C)C(=O)[C@H](CC(C)C)NC(=O)[C@H](CC(C)C)N(C)C(=O)[C@H](CC(C)C)NC1=O [galaxamide] (cyclo(LL[NMeL]L[NMeL]))', 8.73),
  ('CC(C)C[C@H]1NC(=O)[C@@H]2CCCN2C(=O)[C@@H](CC(C)C)NC(=O)[C@@H]2CCCN2C(=O)[C@@H](CC(C)C)NC1=O [Compound Z-8, Cyclo (D-Leu-Pro-D-Leu-Pro-D-Leu)] (cyclo(P[dL]P[dL][dL]))', 20.16);
